B1: ESRRA (parent)
chain: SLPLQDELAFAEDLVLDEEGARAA

# Variants of: B1
# assay_method_text: protein stability index of a GFP-peptide fusion (GPS, HEK-293T) (PSI 1-6); higher = more stable;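 also: lentivirally expressed fusions sorted by FACS into six bins by GFP to DsRed ratio, PSI derived from sequencing read proportions per bin multiplied by bin number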
# test_parameters: c terminus: a fixed tail appended
recorded_metric: protein stability index
Write the value as a bare number.

Record G20L . Reported protein stability index: 3.04

GET /value?item= R22Y &field=protein stability index returns 3.01

protein stability index in this record for D13E : 2.92

The variant A24G showed protein stability index equal to 3.22

Lab book: protein stability index of L8G noted as 5.2
